target: pooled human IgG (human IgG1,2,3 and 4)
outcome-measure: Enzyme Activity Endpoint Assay (purified): Fc (ng/µL)
Provide only the numeric value, understood in ng/µL.

If you can, please state the reported Enzyme Activity Endpoint Assay (purified): Fc value of PRT-462 (protein) MVTSVWTKGVTPPTDFRKIVDGNIAYYHAPYKAGQGWYDITKAFDGGDDLLCGAATAGNMLHWWFDQNKDQIERYLKEHPEKQKINFNGEQMFDVKEAIDTKDSQTNSELFNYFKEKAFPYLSTKHLGVFPDHVLDMFINGYRLSLTNHGPTPVKEGSKDPRGGIFDAVFTRGDQSKLLTSRHDLKNKTLKEISDLIKQELTEGKALGLSHTYANVRINHVINLWGADFDSEGNLKAIYVTDSDSNASIGMKKYFVGVNSAGKVAISAKEIKEDNIGAQVLGLFTLSTGQDIWNQTNLEHHHHHH .
0
